We begin with a simple list: items and their reported pIC50.
biological target: IKKε (Homo sapiens, UniProt Q14164); experiment: IKKε biochemical assay; conditions: 10 point 1:4 dose response, 30 uM top concentration, 90 min at 25° C., LabChip EZ Reader II; read-out: IKKε_IC50
Sequence (Q14164 whole entry, species assumed): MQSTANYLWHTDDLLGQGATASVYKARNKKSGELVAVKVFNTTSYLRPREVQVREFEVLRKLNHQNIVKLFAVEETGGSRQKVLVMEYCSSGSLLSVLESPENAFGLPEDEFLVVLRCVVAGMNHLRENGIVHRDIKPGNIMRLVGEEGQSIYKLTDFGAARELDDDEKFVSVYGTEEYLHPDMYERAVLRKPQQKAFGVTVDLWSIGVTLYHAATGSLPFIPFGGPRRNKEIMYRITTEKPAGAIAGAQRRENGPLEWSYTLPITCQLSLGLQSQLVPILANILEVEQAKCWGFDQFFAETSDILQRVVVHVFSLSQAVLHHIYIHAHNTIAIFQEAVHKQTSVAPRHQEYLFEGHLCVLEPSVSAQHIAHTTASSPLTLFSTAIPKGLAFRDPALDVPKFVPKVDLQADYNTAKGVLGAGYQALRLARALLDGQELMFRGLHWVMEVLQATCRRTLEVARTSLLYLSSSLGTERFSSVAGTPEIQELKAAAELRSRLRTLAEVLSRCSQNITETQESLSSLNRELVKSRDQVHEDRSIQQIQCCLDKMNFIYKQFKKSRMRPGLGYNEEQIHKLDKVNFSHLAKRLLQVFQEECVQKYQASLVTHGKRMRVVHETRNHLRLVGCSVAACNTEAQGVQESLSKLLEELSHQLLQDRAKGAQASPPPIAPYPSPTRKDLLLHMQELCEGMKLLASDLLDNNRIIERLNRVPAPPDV
pIC50: −log10 of the molar value.

{"compound": "COc1nc(Nc2nccc(-c3ccc(OC4CCN(C(=O)[C@@H]5CCCO5)CC4(F)F)c(C#N)c3)n2)ccc1N1CCN(C2COC2)CC1 (some centres unmarked) [Example 254]", "result": "> 7.00"}

Item COc1cc(Nc2nccc(-c3ccc(OC4CCN(C(=O)C(C)O)CC4(F)F)c(C#N)c3)n2)ccn1 (stereo in doubt) [Example 327] has what recorded pIC50?
> 7.00

Fill blank: measured pIC50 of the compound COc1nc(Nc2nccc(-c3ccc(OC4CCN(C(=O)[C@H](C)O)CC4(F)F)c(C#N)c3)n2)ccc1N1CCN(C)CC1C (stereo in doubt) [Example 112] is ____.
> 7.00

Query (compound): CC(O)C(=O)N1CC[C@H](Oc2ccc(-c3nc(Nc4ccc(N5CCN(C6COC6)CC5)cc4)ncc3F)cc2C#N)[C@H](F)C1 (some centres unmarked) [Example 295] ; field requested: pIC50
> 7.00

Any idea what its pIC50 is? The compound is COc1nc(Nc2nccc(-c3ccc(OC4CCN(C(=O)[C@H](C)O)CC4(F)F)c(C#N)c3)n2)ccc1N1CCN(C)C[C@@H]1C (some centres unmarked) [Example 113]
> 7.00

I'd like to know its pIC50. The compound in question is C[C@H](O)C(=O)N1CCC(Oc2ccc(-c3ccnc(Nc4cccc(C5CCN(C6COC6)CC5)c4)n3)cc2C#N)C(F)(F)C1 (some centres unmarked) [Example 224]
> 7.00
